Tested on: T1, TSG101 UEV (human), Q99816
T1 chain: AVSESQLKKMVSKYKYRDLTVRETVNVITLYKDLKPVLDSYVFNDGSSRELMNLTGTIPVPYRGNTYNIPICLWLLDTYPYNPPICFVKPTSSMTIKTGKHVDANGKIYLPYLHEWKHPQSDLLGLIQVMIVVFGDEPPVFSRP
Procedure details: FP
Run conditions: modification not given
Readout kind: IC50 (µM)
Report the value in µM with no unit label.

Reference set, count: 3
[[record]]
binder = "NGCSSPTAPLSPMSP [GJA1 pS]"
readout_kind = "IC50"
unit_abbreviation = "µM"
assay_value = 420

[[record]]
binder = "HSGNVTPTAPPYLQES [TMEM55A pS]"
readout_kind = "IC50"
unit_abbreviation = "µM"
assay_value = 34

[[record]]
binder = "NGCSSPTAPLEPMSP [GJA1 E]"
readout_kind = "IC50"
unit_abbreviation = "µM"
assay_value = 232


Below: the item to evaluate.
q: Query IC50 for HSGNVEPTAPPYLQES [TMEM55A E]
a: 37
